Biological target: Oxysterols receptor LXR-beta (Homo sapiens)
Sequence (P55055 whole entry): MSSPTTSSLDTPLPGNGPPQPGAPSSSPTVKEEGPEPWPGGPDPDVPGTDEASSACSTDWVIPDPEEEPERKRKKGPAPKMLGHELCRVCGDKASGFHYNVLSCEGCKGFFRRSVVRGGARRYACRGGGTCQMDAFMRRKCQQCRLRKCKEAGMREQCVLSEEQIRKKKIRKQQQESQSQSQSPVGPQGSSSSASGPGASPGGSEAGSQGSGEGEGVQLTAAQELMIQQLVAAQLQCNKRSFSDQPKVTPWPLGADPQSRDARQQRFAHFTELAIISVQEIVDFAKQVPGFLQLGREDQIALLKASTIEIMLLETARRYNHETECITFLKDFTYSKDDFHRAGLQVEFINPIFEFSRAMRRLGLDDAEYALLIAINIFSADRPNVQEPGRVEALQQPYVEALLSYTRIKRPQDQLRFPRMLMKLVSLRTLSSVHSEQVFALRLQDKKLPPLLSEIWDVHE
Assay: Agonist activity at full length human LXRbeta transfected in HEK293T cells co-expressing ABCA1 assessed as increase in luciferase activity measured after 18 hrs by luciferase reporter gene assay
pEC50: −log10 of the molar value.

{"Compound": "CC(C)CC[C@@H](O)[C@@H](C)[C@H]1CC[C@H]2[C@@H]3CC=C4C[C@@H](O)CC[C@]4(C)[C@H]3CC[C@]12C [22(R)-HYDROXYCHOLESTEROL]", "pEC50": 5.82}
{"Compound": "CC(C)=C[C@@H]1C[C@@H]([C@@H]2CC[C@]3(C)C4=CC[C@H]5C(C)(C)C(=O)CC[C@]5(C)[C@H]4CC[C@@]23C)[C@H](O)O1", "pEC50": 5.28}

* * *

Listing of recorded EC50 by entry.
biological target: Oxysterols receptor LXR-alpha (Homo sapiens, UniProt Q13133); assay: Agonist activity at full length human LXRalpha transfected in HEK293T cells co-expressing ABCA1 assessed as increase in luciferase activity measured after 18 hrs by reporter gene assay
Sequence (Q13133 whole entry): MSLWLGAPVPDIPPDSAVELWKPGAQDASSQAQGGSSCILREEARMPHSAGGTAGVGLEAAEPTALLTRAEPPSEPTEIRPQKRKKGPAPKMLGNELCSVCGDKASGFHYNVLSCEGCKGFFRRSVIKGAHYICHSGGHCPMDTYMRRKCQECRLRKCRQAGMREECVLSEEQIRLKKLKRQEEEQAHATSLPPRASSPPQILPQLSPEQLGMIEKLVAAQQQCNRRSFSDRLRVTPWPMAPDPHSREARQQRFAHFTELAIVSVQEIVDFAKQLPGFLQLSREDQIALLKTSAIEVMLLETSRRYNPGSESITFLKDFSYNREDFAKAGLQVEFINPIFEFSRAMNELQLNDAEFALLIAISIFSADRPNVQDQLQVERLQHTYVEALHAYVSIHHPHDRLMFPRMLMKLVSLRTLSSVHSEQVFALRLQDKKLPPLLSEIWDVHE
Recorded Endpoint: EC50 (nM)

{"Compound": "CC(C)=C[C@@H]1C[C@@H]([C@@H]2CC[C@]3(C)C4=CC[C@H]5C(C)(C)C(=O)CC[C@]5(C)[C@H]4CC[C@@]23C)[C@H](O)O1", "Recorded Endpoint": "EC50", "Test Value": 1600}
{"Compound": "CC(C)CC[C@@H](O)[C@@H](C)[C@H]1CC[C@H]2[C@@H]3CC=C4C[C@@H](O)CC[C@]4(C)[C@H]3CC[C@]12C [22(R)-HYDROXYCHOLESTEROL]", "Recorded Endpoint": "EC50", "Test Value": 1200}
